What log10 kon was measured for each of the following?
# STUDY_TARGET: T1, His-tagged human HVEM (human, UniProt Q92956 39-202, limits assumed)
# T1 construct: Analyte of the BLI assay, 200 nM in PBS; not shown: His tag
# T1 sequence (looked up): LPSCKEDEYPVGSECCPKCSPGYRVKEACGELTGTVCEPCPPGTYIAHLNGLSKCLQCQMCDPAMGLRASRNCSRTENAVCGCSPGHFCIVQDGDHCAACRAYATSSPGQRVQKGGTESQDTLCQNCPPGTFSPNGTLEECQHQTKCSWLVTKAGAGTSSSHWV
# RUN_DESCRIPTION: BLI OctetRed96, mAb captured, 200 nM His-HVEM
The common logarithm of kon in M⁻¹ s⁻¹ is what is listed.

q: Look at this binder and give its reported log10 kon. Ab_083 (H5S20-49A39A) (antibody, V domains shown, also called Ab_153; Ab_83) VH: EVQLQQSGAELVKPGASVKLSCTASGFNIKDTYVHWVKERPEQGLEWIGRIDPANDNTKYAPKFQVKATITADTSSNTAYLQLSSLTSEDNAVYYCAPYGNYPAWFAYWGQGTLVTVSA VL: DVLMTQTPLSLPVSLGDQVSISCRSSQNIVHSNGNTYLEWYLQKPGQSPKLLIYKVSNRFSGVPDRFSGSGSGTDFTLKISRVEAEDLGVYYCFQGSHVPLTFGAGTKLELK
a: 5.40

q: Try this binder too: Ab_025 (H5S15-2A2A) (antibody, V domains shown, also called Ab_25) VH: EVQLQQSGAELVKPGASVKLSCTASGFNIKDTYMHWVKQRPEQGLEWIGRIDPANDNTKYDPKFQGKATITADTSSNTAYLQLSSLTSEDTAVYYCARVYYAMDYWGQGTSVTVSS VL: DIQMTQSPASLSASVGETVTITCRASENIYSYLAWYQQKQGKSPQLLVYNAKTLAEGVPSRFSGSGSGTQFSLKINSLQPEDFGSYYCQHHYGTYTFGGGTKLEIK
a: 5.71

q: Try this binder too: Ab_026 (H5S15-11A3B) (antibody, V domains shown, also called Ab_26) VH: EVQLQQSGADLVKPGASVKLSCTASGFNIKDTYMHWVKQRPEQGLEWIGRIAPANGRTKYDPKFQGKATITADTSSNTAYLQLSSLTSEDTAVYYCANYYASSYDWFAYWGQGTLVTVSA VL: DVLMTQTPLSLTVSLGHQASISCRSSQSIVHSNGNTYLEWYLQKPGQSPKLLIYKVSNRFSGVPDRFSGSGSGTDFTLKISRVEAEDLGVYYCFQGSHVPLTFGAGTKLELK
a: 5.89

q: Try this binder too: Ab_005 (H5S14-4A4A) (antibody, V domains shown, also called Ab_5) VH: EVQLQQSGPELVKPGASVKISCKTSGYTFTEYTMHWVKQSHGKSLEWIGGINPYNGGTINNQKFKGKATLTVDMSSSTAYMELRSLTSEDSAVYYCAGSVVDRYWYFDVWGAGTTVTVSS VL: QIVLTQSPAIMSASPGEKVTISCSASSSVSYMYWYQQKPGSSPKPWIYRTSNLASGVPARFSGSGSGTSYSLTISSMEAEDAATYYCQQYHSYPLTFGAGTKLELK
a: 3.35

q: Try this binder too: Ab_077 (H5S20-31A16B) (antibody, V domains shown, also called Ab_77) VH: EVQLQQSGAELVRSGASVKLSCTTSGFNIKDYYMHWVKQRPEQGLEWIGWIDPENGDTEYAPKFQGKATMTADTSSNTAYLQLSSLTSEDTAVYYCNSRTLGYWGQGTLVTVSA VL: QIVLTQSPALMSASPGEKVTMTCSASSSVSFIYWYQQKPRSSPKPWIYLTSNLASGVPARFSGSGSGTSYSLTISSMEAEDAATYYCQQWSSNPLTFGAGTKLEL
a: 4.94

q: Try this binder too: Ab_008 (H5S14-11A10A) (antibody, V domains shown, also called Ab_8) VH: EVKLVESGGGLVKPGGSLRLSCAASGFTFSSFAMSWIRQTPEKGLEWVASITTGGSSYSPDSLKGRFTISRDNVRNIVYLQMSSLRSEDTAMYACARGGGGNYFWFAYWGQGTLVTVSA VL: DVVMTQTPLSLPVSLGDQASISCRSSQSLVHSNGNTYLHWYLQKPGQSPKLLIYKVSNRFSGVPDRFSGSGSGTDFTLKISRVEAEDLGVYFCSQSIHVPFTFGSGTKLEIK
a: 5.68

q: Try this binder too: Ab_078 (H5S20-45A34A) (antibody, V domains shown, also called Ab_78) VH: EVQLQQSGAELVRSGASVKLSCAASGFNIKDYYMHWVKQRPEQGLEWIGWIDPENGDTEFAPKFQGKATLTADTSSNTAYLQLSSLTSEDTAVYYCNTRTLGYWGQGTLVTVSA VL: QIVLTQSPALMSASPGEKVTMTCTASSSVSYMYWYQQKPRSSPKPWIYLTSNLASGVPARFSGSGSGTSYSLTISSMEAEDAATYYCQQWSSNPLTFGAGTKLELR
a: 5.67

q: Try this binder too: Ab_053 (H5S19-20A20A) (antibody, V domains shown, also called Ab_53) VH: QVQLKESGPGLVAPSQSLSITCTVSGFSLTSYGVHWVRQPPGKGLEWLGVIWAGGITNYNSALMSRLSISKDNSKSQVFLKMNSLQTDDTAMYYCARDWERDSSGPFVYWGQGTLVTVSA VL: DIQMTQTTSSLSASLGDRVTISCTASQGISNYLNWYQQKPDGTVKLLIYYTSTLHSGVPSRFSGSGSGTDYSLTISNLEPEDIATYYCQQYFKLPWTFGGGTKLEIK
a: 4.63

q: Try this binder too: Ab_054 (H5S19-21A17C) (antibody, V domains shown, also called Ab_54) VH: QVQLKESGPGLVAPSQSLSITCTVSGFSLTSYGVHWVRQPPGKGLEWLGVIWAGGITNYNSALMSRLSISTDNSRSQVFLKMNSLQTDDTAMYYCARDWERDSSGPFPYWGQGTLVTVSA VL: DIQMTQTTSSLSASLGDRVTISCSASQGISNYLNWYQQKPDGTVKLLIYYTSSLHSGVPSRFSGSGSGTDYSLTISNLEPEDIATYFCQQYSKLPWTFGGGTKLEIK
a: 5.16

q: Try this binder too: Ab_001 (H5S14-1A1A) (antibody, V domains shown, also called Ab_1) VH: DVKLVESGGGLVKPGGSLKLSCAASVFTFSRYTMSWVRQTPEKRLEWVATISSGGSYTYYPDSVKGRFTISRDNAKNTLYLQMSSLKSEDTAIYYCTRGGDGLFDYWGQGTALTVSS VL: DVQITQSPSYLAASPGETITINCRASKSISKYLAWYQEKPGKTNQLLIYSGSTLQSGIPSRFSGSGSGTDFTLTISSLEPEDFAMYYCQQHNEYPWTFGGGTKLEIK
a: 5.45
